In this section, each of the binders is paired with its reported koff.
- Subject Of Test: T1, hRET.mmh (human, UniProt P07949 29-635, biotinylated in the ELISA of Example 4 (biot-hRET.mmh); not in the SPR of Example 3)
- T1 construct: also called biot-hRET.mmh; soluble monomeric human RET
- Method: SPR Biacore T200, mAb capture, 37 C
Property Name: koff (s⁻¹)

# Binder, Property Name, Quantitative Result
rows = [
    ("H4H8071P (antibody, human IgG4, V domains shown, human IgG4 Fc (H4H prefix)) VH: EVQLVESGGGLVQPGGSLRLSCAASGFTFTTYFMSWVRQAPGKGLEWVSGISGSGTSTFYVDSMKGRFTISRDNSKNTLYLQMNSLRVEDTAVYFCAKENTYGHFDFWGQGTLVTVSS VL: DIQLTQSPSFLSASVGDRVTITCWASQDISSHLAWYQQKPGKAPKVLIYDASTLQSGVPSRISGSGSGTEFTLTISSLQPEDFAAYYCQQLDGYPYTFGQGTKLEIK", "koff", 0.000896),
    ("H4H8045P (antibody, human IgG4, V domains shown, human IgG4 Fc (H4H prefix)) VH: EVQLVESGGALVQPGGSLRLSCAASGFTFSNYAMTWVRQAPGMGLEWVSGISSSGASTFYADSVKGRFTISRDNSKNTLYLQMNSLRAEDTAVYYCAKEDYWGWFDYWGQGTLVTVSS VL: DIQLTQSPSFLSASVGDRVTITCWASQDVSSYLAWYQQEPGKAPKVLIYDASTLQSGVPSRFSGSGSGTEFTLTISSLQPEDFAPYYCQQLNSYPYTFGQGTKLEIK", "koff", 0.00127),
]

From: patent US20220185900A1
